- ASSAYED TARGET: C5aR (Homo sapiens (Human), UniProt P21730)
- Sequence (P21730 whole entry): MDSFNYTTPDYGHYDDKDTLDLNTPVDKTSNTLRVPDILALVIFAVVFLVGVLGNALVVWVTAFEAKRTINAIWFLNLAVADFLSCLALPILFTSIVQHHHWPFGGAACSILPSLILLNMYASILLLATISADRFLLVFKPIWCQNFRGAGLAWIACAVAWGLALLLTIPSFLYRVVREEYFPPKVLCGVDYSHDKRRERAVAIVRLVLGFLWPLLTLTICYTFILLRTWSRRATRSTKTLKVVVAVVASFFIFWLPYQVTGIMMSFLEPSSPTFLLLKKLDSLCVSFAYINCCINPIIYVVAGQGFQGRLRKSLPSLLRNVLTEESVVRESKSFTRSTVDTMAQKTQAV
- METHOD NOTES: Chemotaxis assay (inhibition of C5aR mediated migration towards C5a)
- PROTOCOL CONDITIONS: inhibition in the chemotaxis assay (Example 14 B.3); U937 or neutrophil cells, 0.03 nM C5a
READOUT KIND: IC50

Data request: Supply reported IC50 belonging to this compound: Cc1cccc(C)c1-n1nc2c(c1-c1ccc3[nH]ccc3c1)CN(CC(C)(C)C)C2 [Compound 1.053]
Data returned: 50 to 500 nM

Data request: Check the records and state IC50 for CCc1cccc(CC)c1-n1nc2c(c1-c1ccc(F)c3[nH]ccc13)CN(Cc1ncco1)C2(C)C [Compound 1.008]
Data returned: 50 to 500 nM

Data request: Annotate the compound CCc1cccc(CC)c1-n1nc2c(c1-c1ccc(F)c3[nH]ccc13)CN(Cc1ccncc1)C2(C)C [Compound 1.014] with its measured IC50.
Data returned: 50 to 500 nM

Data request: For the compound CCc1cccc(CC)c1-n1nc2c(c1-c1cccc3[nH]ccc13)CN(C(=O)COc1ccccc1)C2(C)C [Compound 1.041] , report IC50.
Data returned: 50 to 500 nM

Data request: Hello, please tell me recorded IC50 for this one: CCc1cccc(CC)c1-n1nc2c(c1-c1ccc(F)c3[nH]cc(Cl)c13)CN(Cc1ccc(Cl)cc1F)C2(C)C [Compound 1.015]
Data returned: 5 to 50 nM

Data request: Given the compound CCc1cccc(CC)c1-n1nc2c(c1-c1ccc(F)c3[nH]ccc13)CN(CC(C)(C)C)C2(C)C [Compound 1.032] , write its reported IC50.
Data returned: < 5 nM

Data request: Provide IC50 value for the following compound: CCc1cccc(CC)c1-n1nc2c(c1-c1ccc(F)c3[nH]cc(Cl)c13)CN(Cc1ccc(F)cc1F)C2(C)C [Compound 1.017]
Data returned: < 5 nM

Data request: Determine from records and report IC50 for CCc1cccc(CC)c1-n1nc2c(c1-c1cccc3[nH]ccc13)CN(Cc1cc(Cl)ccc1Cl)C2(C)C [Compound 1.042]
Data returned: 5 to 50 nM

Data request: Supply reported IC50 belonging to this compound: CCc1cccc(CC)c1-n1nc2c(c1-c1ccc(F)c3[nH]ccc13)CN(Cc1ccccc1C(F)(F)F)C2(C)C [Compound 1.029]
Data returned: 5 to 50 nM

Data request: Identify measured IC50 corresponding to CCc1cccc(CC)c1-n1nc2c(c1-c1ccc3[nH]ccc3c1)CN(C(c1ccccc1)C(C)(C)O)C2(C)C (stereo not shown) [Compound 1.049]
Data returned: 50 to 500 nM

Data request: Hello, please tell me recorded IC50 for this one: CCc1cccc(CC)c1-n1nc2c(c1-c1ccc(C(=O)O)c3[nH]ccc13)CN(Cc1ccc(C(F)(F)F)cc1C(F)(F)F)C2(C)C [Compound 1.005]
Data returned: ≥ 500 nM

Data request: Provide one value: measured IC50 of CCc1cccc(CC)c1-n1nc2c(c1-c1ccc(F)c3[nH]ccc13)CN(C(=O)CN)C2(C)C [Compound 1.006]
Data returned: ≥ 500 nM

Data request: # return recorded IC50 for input Cc1cccc(C)c1-n1nc2c(c1-c1ccc3[nH]ccc3c1)CN(C(=O)[C@@H](O)C(C)C)C2 [Compound 1.062]
Data returned: ≥ 500 nM

Data request: Using the record for CCc1cccc(CC)c1-n1nc2c(c1-c1cccc3[nH]cc(Cl)c13)CN(Cc1ccc(C(F)(F)F)cc1C(F)(F)F)C2(C)C [Compound 1.034] , state its measured IC50.
Data returned: 5 to 50 nM

Data request: Give the reported IC50 for this compound. CCc1cccc(CC)c1-n1nc2c(c1-c1cccc3[nH]cc(F)c13)CN(Cc1ccc(C(F)(F)F)cc1C(F)(F)F)C2(C)C [Compound 1.010]
Data returned: 5 to 50 nM

Data request: Fill in reported IC50 for this entry: CCc1cccc(CC)c1-n1nc2c(c1-c1ccc(F)c3[nH]ccc13)CN(C(=O)C(C)(C)C)C2(C)C [Compound 1.033]
Data returned: 5 to 50 nM

Data request: Give recorded IC50. CCc1cccc(CC)c1-n1nc2c(c1-c1cc(F)c3[nH]ccc3c1)CN(Cc1ccc(C(F)(F)F)cc1C(F)(F)F)C2(C)C [Compound 1.027]
Data returned: 5 to 50 nM

Data request: Supply recorded IC50 for Cc1cccc(C)c1-n1nc2c(c1-c1ccc3[nH]ccc3c1)CN(C(=O)OC(C)(C)C)C2 [Compound 1.067] here.
Data returned: 50 to 500 nM

Data request: Give recorded IC50. CCc1cccc(CC)c1-n1nc2c(c1-c1ccc(CO)c3[nH]ccc13)CN(Cc1ccc(C(F)(F)F)cc1C(F)(F)F)C2(C)C [Compound 1.004]
Data returned: < 5 nM
